- Procedure Summary: in vivo
- Experimental Conditions: mouse, po
Measured Property: LD50

Q: Name the reported LD50 value associated with the compound COc1cc(N)c(Cl)cc1NC(=O)C1CCN(Cc2ccccc2)CC1
A: ~500 mg/kg

----------
- Procedure Summary: in vivo
- Experimental Conditions: sc
Measured Property: ED50 (mg/kg)
Give your result in mg/kg as a bare value.

Please review the entries below; each comes with its answer.
{"columns": ["Molecule", "ED50 / mg/kg"],
 "data": [
  ["CN(C)CCCN1c2ccccc2Sc2ccc(Cl)cc21 [Chlorpromazine, reference compound]", 3],
  ["O=C(CCCN1CCC(O)(c2ccc(Cl)cc2)CC1)c1ccc(F)cc1 [Haloperidol, reference compound]", 0.3]
]}

Q: Give its ED50 value. Item: COc1cc(N)c(Cl)cc1NC(=O)C1CCN(Cc2ccccc2)CC1
A: 6

Measured values drawn from patent US4223034A for this set.
